Data credit: patent US10112918B2

- Tested on: SW-480 (human colon cancer cells)
- protocol.details: MTT inhibition of tumor cell growth, SW-480
- Assay type: cell-based
- test.parameters: Table 6, 7-hydroxyl derivatives and controls, 48 h, read-out: IC50 SW-480, 7-hydroxyl derivatives
assay.readout: pIC50
Convention used: pIC50 is expressed as -log10 of the molar concentration.

Problem: Please indicate pIC50 recorded for [NH2][Pt]([NH2])([Cl])[Cl] [cis-DDP, reference compound]
Solution: 4.96

---

- System: SW-480 (human colon cancer cells)
- protocol.details: MTT inhibition of tumor cell growth, SW-480
- Format: cell-based
- test.parameters: Homo sapiens, SW480, 48 h, Table 6, 7-hydroxyl derivatives and controls, read-out: IC50 SW-480, 7-hydroxyl derivatives
assay.readout: IC50 (nM)
Numbers only here, please. The scale is nM.

Known results for compounds:
- compound: "C=C1C(=O)C23CC[C@H]1CC2[C@@]12CCC[C@@](C)(COS(=O)OC1)C2C[C@H]3O (stereo partly shown)"
  unit.string: "nM"
  IC50: 2090
- compound: "C=C1C(=O)C23CC[C@H]1CC2[C@]1(COC(C)=O)CCC[C@@](C)(COC(C)=O)C1C[C@H]3O (stereo partly shown)"
  unit.string: "nM"
  IC50: 2810

Problem: Please indicate IC50 recorded for C=C1C(=O)C23CC[C@H]1CC2[C@]1(COC(=O)c2cccs2)CCC[C@@](C)(COC(=O)c2cccs2)C1C[C@H]3O (stereo partly shown)
Solution: 2970
